biological target: UniProt:P00918
pKi: −log10 of the molar value.
// reported pKi for each item listed
Quantity: pKi

>>> numeric_value("CC(=O)N1N=C(c2cccc(OS(N)(=O)=O)c2)CC1c1ccc(C(F)(F)F)cc1 (stereo not drawn)")
7.65
>>> numeric_value("CC(=O)N1N=C(c2ccc(Cl)c(Cl)c2)CC1c1cccc(OS(N)(=O)=O)c1 (stereo not drawn)")
7.26
>>> numeric_value("CC(=O)N1N=C(c2ccc(OS(N)(=O)=O)cc2)CC1c1ccc([N+](=O)[O-])cc1 (stereo not drawn)")
8.92
>>> numeric_value("CC(=O)N1N=C(c2ccc(Cl)cc2)CC1c1cccc(OS(N)(=O)=O)c1 (stereo not drawn)")
7.49
>>> numeric_value("COc1ccc(C2=NN(C(C)=O)C(c3ccc(OS(N)(=O)=O)cc3)C2)cc1 (stereo not drawn)")
9.38
>>> numeric_value("COc1ccc(C2CC(c3ccc(OS(N)(=O)=O)cc3)=NN2C(C)=O)cc1 (stereo not drawn)")
8.28
>>> numeric_value("CC(=O)N1N=C(c2ccc(OS(N)(=O)=O)cc2)CC1c1cccc2ccccc12 (stereo not drawn)")
7.56
>>> numeric_value("COc1ccc(C2CC(c3cccc(OS(N)(=O)=O)c3)=NN2C(C)=O)cc1 (stereo not drawn)")
7.28
>>> numeric_value("CC(=O)N1N=C(c2ccc(OS(N)(=O)=O)cc2)CC1c1cccc(Cl)c1 (stereo not drawn)")
9.06
>>> numeric_value("CC(=O)N1N=C(c2cccc(OS(N)(=O)=O)c2)CC1c1ccccc1 (stereo not drawn)")
7.40
>>> numeric_value("CC(=O)N1N=C(c2ccc([N+](=O)[O-])cc2)CC1c1cccc(OS(N)(=O)=O)c1 (stereo not drawn)")
7.64
>>> numeric_value("CC(=O)N1N=C(c2ccc(Cl)cc2)CC1c1ccc(OS(N)(=O)=O)cc1 (stereo not drawn)")
7.71
>>> numeric_value("CC(=O)N1N=C(c2ccc(OS(N)(=O)=O)cc2)CC1c1ccc(C)cc1 (stereo not drawn)")
8.19
>>> numeric_value("CC(=O)N1N=C(c2ccccc2)CC1c1ccc(OS(N)(=O)=O)cc1 (stereo not drawn)")
7.35
>>> numeric_value("CC(=O)N1N=C(c2ccc(OS(N)(=O)=O)cc2)CC1c1cc(Cl)ccc1Cl (stereo not drawn)")
7.91
>>> numeric_value("CC(=O)N1N=C(c2ccc([N+](=O)[O-])cc2)CC1c1ccc(OS(N)(=O)=O)cc1 (stereo not drawn)")
8.02
>>> numeric_value("CC(=O)N1N=C(c2cccc(OS(N)(=O)=O)c2)CC1c1cccc2ccccc12 (stereo not drawn)")
6.67
>>> numeric_value("CC(=O)N1N=C(c2ccc(OS(N)(=O)=O)cc2)CC1c1ccc(F)cc1 (stereo not drawn)")
8.82

====

biological target: Carbonic anhydrase 9 (Homo sapiens)
pKi: −log10 of the molar value.
// reported pKi for each item listed
Quantity: pKi

>>> numeric_value("CC(=O)N1N=C(c2ccc([N+](=O)[O-])cc2)CC1c1ccc(OS(N)(=O)=O)cc1 (stereo not given)")
7.82
>>> numeric_value("COc1ccc(C2CC(c3ccc(OS(N)(=O)=O)cc3)=NN2C(C)=O)cc1 (stereo not given)")
7.60
>>> numeric_value("CC(=O)N1N=C(c2ccc(Cl)cc2)CC1c1ccc(OS(N)(=O)=O)cc1 (stereo not given)")
8.08
>>> numeric_value("CC(=O)N1N=C(c2ccc(Cl)c(Cl)c2)CC1c1cccc(OS(N)(=O)=O)c1 (stereo not given)")
7.81
>>> numeric_value("CC(=O)N1N=C(c2ccc(OS(N)(=O)=O)cc2)CC1c1ccc(F)cc1 (stereo not given)")
8.23
>>> numeric_value("CC(=O)N1N=C(c2ccc(OS(N)(=O)=O)cc2)CC1c1ccccc1Cl (stereo not given)")
7.59
>>> numeric_value("CC(=O)N1N=C(c2ccc([N+](=O)[O-])cc2)CC1c1cccc(OS(N)(=O)=O)c1 (stereo not given)")
8.03
>>> numeric_value("CC(=O)N1N=C(c2ccccc2)CC1c1cccc(OS(N)(=O)=O)c1 (stereo not given)")
7.88
>>> numeric_value("CC(=O)N1N=C(c2ccc(OS(N)(=O)=O)cc2)CC1c1ccccc1 (stereo not given)")
7.47
>>> numeric_value("CC(=O)N1N=C(c2cccc(OS(N)(=O)=O)c2)CC1c1ccc([N+](=O)[O-])cc1 (stereo not given)")
8.00
